// provenance: PubChem BioAssay AID1259421

# maps each entry to its activity change, negative = inhibition
ASSAY: T. gondii ME49Luc in HeLa cells, luciferase assay, 72 h, no IFN-y (AID 1259421)
TEST SETTINGS: active compounds read low, concentration not given here
Screen size: about 6,400 compounds; about 610 (9.5%) were called active. Many of the other results were omitted from the sample, so actives are more common in it than they were.

>  <COMPOUND>
C=CCNC1=C2C[C@@H](C)C[C@H](OC)[C@H](O)[C@@H](C)/C=C(\C)[C@H](OC(N)=O)[C@@H](OC)/C=C\C=C(/C)C(=O)NC(=CC1=O)C2=O

>  <VALUE REPORTED>
-56% (inactive)

$$$$
>  <COMPOUND>
COc1ccc2cc1Oc1cc3c(cc1OC)CC[N+](C)(C)[C@H]3Cc1ccc(cc1)Oc1c(OC)c(OC)cc3c1[C@@H](C2)[N+](C)(C)CC3

>  <VALUE REPORTED>
18.6% (inactive)

$$$$
>  <COMPOUND>
CN1c2cc(O)c(N=NC(N)=O)cc2CC1S(=O)(=O)O (centres undefined)

>  <VALUE REPORTED>
-1.43% (inactive)

$$$$
>  <COMPOUND>
CC(=O)NC[C@H]1CN(c2ccc(-c3ccc(CNCc4cn[nH]n4)cc3)c(F)c2)C(=O)O1

>  <VALUE REPORTED>
-34.7% (inactive)

$$$$
>  <COMPOUND>
COc1ccc(Cn2ccc3ccc(C(=O)NO)cc32)cc1

>  <VALUE REPORTED>
1.1% (inactive)

$$$$
>  <COMPOUND>
CSC1SCC2C(=O)N(C)C(C(C)C)C(=O)OCC(NC(=O)c3cnc4ccccc4n3)C(=O)NC(C)C(=O)N(C)C1C(=O)N(C)C(C(C)C)C(=O)OCC(NC(=O)c1cnc3ccccc3n1)C(=O)NC(C)C(=O)N2C (centres undefined)

>  <VALUE REPORTED>
-84.4% (active)

$$$$

Ask: Give its activity change, negative = inhibition value. Item: C[C@H](/C=C/[C@H](C)C(C)(C)O)[C@H]1CC[C@H]2/C(=C/C=C3C[C@@H](O)C[C@H](O)C3)CCC[C@]12C
Reply: 20.9% (inactive)

Ask: Queued: COc1cc(OC2CCN(C)CC2)ccc1Nc1ncc2c(n1)n(C1CCCC1)c(=O)n2C
Reply: -32% (inactive)

Ask: Queued: CCOC(=O)[C@@H](N)CCC(=O)N[C@@H](CSCc1ccccc1)C(=O)N[C@@H](C(=O)OCC)c1ccccc1
Reply: -2.09% (inactive)

Ask: Queued: C=C1/C(=C\C=C2/CCC[C@]3(C)[C@@H]([C@H](C)/C=C/[C@H](C)C(C)(C)O)CC[C@@H]23)C[C@@H](O)C[C@@H]1O
Reply: 13.5% (inactive)

Ask: Queued: COC(=O)C1=C(C)NC(C)=C(C(=O)O[C@@H]2CCCN(Cc3ccccc3)C2)[C@@H]1c1cccc([N+](=O)[O-])c1
Reply: 23.7% (inactive)

Ask: Queued: C[C@]12C=CC(=O)C=C1CCC1C3C[C@@H](O)[C@](O)(C(=O)CO)[C@@]3(C)C[C@H](O)[C@@]12F (some centres undefined)
Reply: -10.6% (inactive)

----------
ASSAY: T. gondii ME49Luc in HeLa cells, luciferase assay, 72 h, no IFN-y (AID 1259421)
TEST SETTINGS: active compounds read low, concentration not given here
The whole screen tested about 6,400 compounds, of which about 610 (9.5%) were called active. Only a selection was taken, and actives are over-represented in it overall.
# maps each entry to its activity change, negative = inhibition
Quick note: give the figure in %, leave out the unit.

>  <COMPOUND>
CCOCc1nc2c(N)nc3ccccc3c2n1CC(C)(C)O

>  <VALUE REPORTED>
18.1

$$$$
>  <COMPOUND>
Cc1ccc(/C=N/NC(=O)c2ccccc2Oc2ccccc2)o1

>  <VALUE REPORTED>
8.19

$$$$
>  <COMPOUND>
CC(Cc1ccc(O)c(O)c1)C(C)Cc1ccc(O)c(O)c1 (stereo not given)

>  <VALUE REPORTED>
5.71

$$$$
>  <COMPOUND>
COc1cc(F)c(C(C)C)cc1-c1ccc(C(F)(F)F)cc1CN1C(=O)O[C@H](c2cc(C(F)(F)F)cc(C(F)(F)F)c2)[C@H]1C

>  <VALUE REPORTED>
13.2

$$$$

Next, consider the following compound.
Ask: Give its activity change, negative = inhibition value. Item: Nc1nc2c(c(=O)[nH]1)N(C=O)[C@@H](CNc1ccc(C(=O)N[C@@H](CCC(=O)O)C(=O)O)cc1)CN2
Reply: 22.2

----------
ASSAY: T. gondii ME49Luc in HeLa cells, luciferase assay, 72 h, no IFN-y (AID 1259421)
TEST SETTINGS: active compounds read low, concentration not given here
About 610 (9.5%) of roughly 6,400 compounds were called active. The sample as a whole holds a higher share of actives than the screen did.
# maps each entry to its activity change, negative = inhibition
Quick note: give the figure in %, leave out the unit.

>  <COMPOUND>
COc1ccccc1OC(=O)CNC(=O)Cc1ccc(C(=O)c2ccc(C)cc2)n1C

>  <MEASUREMENT UNIT>
%

>  <activity change, negative = inhibition>
15.7

$$$$
>  <COMPOUND>
C=CC(=O)Nc1ccc(Cl)cc1

>  <MEASUREMENT UNIT>
%

>  <activity change, negative = inhibition>
16.9

$$$$
>  <COMPOUND>
COc1cc(CCc2cc(NC(=O)c3ccc(N4C[C@@H](C)N[C@@H](C)C4)cc3)n[nH]2)cc(OC)c1

>  <MEASUREMENT UNIT>
%

>  <activity change, negative = inhibition>
-81.1

$$$$
>  <COMPOUND>
Cc1ccc(C(=O)N(CCCN)[C@@H](c2nc3cc(Cl)ccc3c(=O)n2Cc2ccccc2)C(C)C)cc1

>  <MEASUREMENT UNIT>
%

>  <activity change, negative = inhibition>
-72.6

$$$$
>  <COMPOUND>
O=C1c2ccccc2S(=O)(=O)N1CCCN1CCN(c2ncccn2)CC1

>  <MEASUREMENT UNIT>
%

>  <activity change, negative = inhibition>
6.33

$$$$

Ask: Give its activity change, negative = inhibition value. Item: COc1cc2nc(N3CCCN(C)CC3)nc(NC3CCN(Cc4ccccc4)CC3)c2cc1OC
Reply: -91.5

Ask: Queued: C#CC1(OCC(O)CN2CCN(c3cccc(C(F)(F)F)c3)CC2)CCCCC1 (configuration not stated)
Reply: -34.5

Ask: Queued: CC1(C)Oc2ccc(C#N)cc2[C@H](N2CCCC2=O)[C@H]1O (racemic)
Reply: 17

Ask: Queued: CCC(C)[C@H]1O[C@]2(CC[C@@H]1C)C[C@@H]1C[C@@H](C/C=C(\C)[C@@H](OC3C[C@H](OC)C(O[C@H]4C[C@H](OC)[C@@H](O)[C@H](C)O4)[C@H](C)O3)[C@@H](C)/C=C/C=C3\CO[C@@H]4[C@H](O)C(C)=C[C@@H](C(=O)O1)[C@]34O)O2 (some centres not stated)
Reply: -67.1

----------
ASSAY: T. gondii ME49Luc in HeLa cells, luciferase assay, 72 h, no IFN-y (AID 1259421)
TEST SETTINGS: active compounds read low, concentration not given here
Out of some 6,400 compounds screened, about 610 (9.5%) were called active. This is one part of a sample in which actives are shown more often than they occur.
# maps each entry to its activity change, negative = inhibition
Quick note: give the figure in %, leave out the unit.

Worked cases, activity change, negative = inhibition given:
>  <COMPOUND>
CCCCCCCCCCCCCC(=O)OC(C)C

>  <activity change, negative = inhibition, %>
13.1

$$$$
>  <COMPOUND>
N#C/C(=C\c1ccc(O)c(O)c1)C(=O)OCCc1cccs1

>  <activity change, negative = inhibition, %>
2.66

$$$$

Ask: Give its activity change, negative = inhibition value. Item: O=C1[C@@H]2[C@H]3CC[C@H](C3)[C@@H]2C(=O)N1CCCCN1CCN(c2ncccn2)CC1
Reply: 8.23

Ask: Queued: COc1ccc(CNc2nc(N3CCC[C@H]3CO)ncc2C(=O)NCc2ncccn2)cc1Cl
Reply: -6.59

Ask: Queued: Cc1nccn1CC1CCC2C(C1=O)c1ccccc1N2C (centres undefined)
Reply: 8.1

Ask: Queued: COc1cc2c(cc1OC)C1Cc3ccc(OC)c(OC)c3CN1CC2 (centres undefined)
Reply: 8.53

Ask: Queued: Fc1ccc2c(CCNCc3cccc(OCC(F)(F)C(F)F)c3)c[nH]c2c1
Reply: 38.3

Ask: Queued: CNCCn1c(=O)c2cc(OC)c(OC)cc2c2cnc3cc4c(cc3c21)OCO4
Reply: -94.2

Ask: Queued: CC(C)(C)OC(=O)N[C@H]1CCCCC/C=C\[C@@H]2C[C@@]2(C(=O)NS(=O)(=O)C2CC2)NC(=O)[C@@H]2C[C@@H](OC(=O)N3Cc4cccc(F)c4C3)CN2C1=O
Reply: 19.7

Ask: Queued: O=C(O)c1ccc(-c2ccc3cc(O)c(C45CC6CC(CC(C6)C4)C5)cc3c2)cc1
Reply: -2.82

Ask: Queued: O=c1[nH]c2cc(Cl)c(Cl)c([N+](=O)[O-])c2[nH]c1=O
Reply: 7.55

Ask: Queued: O=C(O)c1cc(=O)c2cccc(O)c2[nH]1
Reply: -75.2

Ask: Queued: CC1CC2C3CCC4=CC(=O)C=CC4(C)C3(F)C(O)CC2(C)C1(O)C(=O)CO (centres undefined)
Reply: -10.3

Ask: Queued: O=C(NOCC(O)CO)c1cc(Br)c(F)c(F)c1Nc1ccc(I)cc1F (centres undefined)
Reply: 8.99

Ask: Queued: CC(C)C(=O)OC[C@H]1O[C@@H](n2ccc(N)nc2=O)[C@](C)(F)[C@@H]1OC(=O)C(C)C
Reply: 23.1

Ask: Queued: CCc1c(Cl)c(O)c(Cl)c(O)c1C(=O)O[C@H]1[C@H](O)[C@H](OC)[C@H](OCC2=C/C=C/C[C@H](O)/C(C)=C\[C@H](CC)[C@H](O[C@@H]3OC(C)(C)[C@@H](OC(=O)C(C)C)[C@H](O)[C@H]3O)/C(C)=C\C(C)=C\C[C@H]([C@@H](C)O)OC2=O)O[C@@H]1C
Reply: 16.6

Ask: Queued: COc1nccc(-c2c(-c3ccc(F)cc3)ncn2C2CCC(O)CC2)n1 (centres undefined)
Reply: -77.2

Ask: Queued: O=c1[nH]c2cc(Cl)c(Cl)cc2[nH]c1=O
Reply: -86.2
